# Measured On: human TASK-3 (Homo sapiens (Human))
# Sequence (Q9NPC2 whole entry): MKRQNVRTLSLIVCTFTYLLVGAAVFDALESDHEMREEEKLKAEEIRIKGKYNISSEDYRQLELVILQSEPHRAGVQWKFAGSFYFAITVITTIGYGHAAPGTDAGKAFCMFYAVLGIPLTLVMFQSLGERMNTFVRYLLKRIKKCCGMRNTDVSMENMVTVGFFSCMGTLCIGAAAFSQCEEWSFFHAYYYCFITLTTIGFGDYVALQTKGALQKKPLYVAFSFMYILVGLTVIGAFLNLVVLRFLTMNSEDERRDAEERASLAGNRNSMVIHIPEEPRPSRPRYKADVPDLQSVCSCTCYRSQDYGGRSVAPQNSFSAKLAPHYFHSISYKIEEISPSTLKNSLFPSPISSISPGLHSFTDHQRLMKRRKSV
# Run Description: Inhibition of recombinant TASK-3 in stably transfected CHO cells (voltage-sensitive dye, KCl depolarization)
# Format: cell-based
# Condition: depolarization by 40 mM potassium chloride
pIC50: −log10 of the molar value.
Below is a list of entries, each paired with its recorded pIC50 value.
Property Name: pIC50

COc1ccc(Cl)c(C(=O)N2CC3CCC2CN3Cc2c(-c3ccc(Cl)cc3)nc3ncccn23)n1 (stereo not shown) [Example 45] | 6.92
CC(C)c1ccc(-c2nc3ncccn3c2CN2CC3CCC2CN3C(=O)c2ncoc2C2CC2)cc1 (stereo not shown) [Example 70] | 7.70
O=C(Nc1cccc(Cl)c1)N1C2CCC1CN(Cc1c(-c3ccc(Cl)cc3)nc3ncccn13)C2 [Example 89] | 6.07
CC(C)c1ccc(-c2nc3ncccn3c2CN2CC3CCC(C2)N3C(=O)OC(C)(C)C)cc1 [Example 130] | 6.68

* * *

# Measured On: human TASK-1 (Homo sapiens (Human))
# Sequence (O14649 whole entry): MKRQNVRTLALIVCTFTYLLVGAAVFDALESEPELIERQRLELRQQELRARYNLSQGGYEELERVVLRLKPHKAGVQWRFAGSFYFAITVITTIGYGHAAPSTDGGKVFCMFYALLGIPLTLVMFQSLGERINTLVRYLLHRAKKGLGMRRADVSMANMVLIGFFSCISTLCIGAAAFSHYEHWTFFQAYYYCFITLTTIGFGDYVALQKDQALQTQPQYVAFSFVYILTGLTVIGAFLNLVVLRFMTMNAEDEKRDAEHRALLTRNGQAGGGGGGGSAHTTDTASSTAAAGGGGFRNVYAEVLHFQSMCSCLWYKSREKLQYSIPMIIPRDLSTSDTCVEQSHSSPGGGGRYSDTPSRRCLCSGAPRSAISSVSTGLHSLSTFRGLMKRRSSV
# Run Description: Inhibition of recombinant TASK-1 in stably transfected CHO cells (voltage-sensitive dye, KCl depolarization)
# Type: cell-based
# Condition: depolarization by 40 mM potassium chloride
pIC50: −log10 of the molar value.
Below is a list of entries, each paired with its recorded pIC50 value.
Property Name: pIC50

CCCOC(=O)N1C2CCC1CN(Cc1c(-c3ccc(Cl)cc3)nc3ncccn13)C2 | 6.55
COc1ccc(Cl)c(C(=O)N2C3COCC2CN(Cc2c(-c4ccc(C(C)C)cc4)nc4ncccn24)C3)n1 | 5.92
O=C(N1CCOCC1)N1C2CCC1CN(Cc1c(-c3ccc(Cl)cc3)nc3ncccn13)C2 | 4.89
CC(C)c1ccc(-c2nc3ncccn3c2CN2CC3CCC2CN3C(=O)c2ncoc2C2CC2)cc1 (stereo not shown) [Example 70] | 5.72
O=C(Nc1cccc(F)c1)N1C2CCC1CN(Cc1c(-c3ccc(Cl)cc3)nc3ncccn13)C2 | 4.72
O=C(c1ccccc1F)N1C2CCC1CN(Cc1c(-c3ccc(Br)cc3)nc3ncccn13)C2 | 6.60
CSc1cccc(C(=O)N2C3COCC2CN(Cc2c(-c4ccc(Cl)cc4)nc4ncccn24)C3)n1 | 6.17
COc1ccc(F)c(C(=O)N2C3CCC2CN(Cc2c(-c4ccc(C5CC5)cc4)nc4ncccn24)C3)n1 | 6.38
O=C(Nc1ccccc1F)N1C2CCC1CN(Cc1c(-c3ccc(Cl)cc3)nc3ncccn13)C2 | 4.92
Cc1ccc(C)c(NC(=O)N2C3CCC2CN(Cc2c(-c4ccc(Cl)cc4)nc4ncccn24)C3)c1 | 4.52
COc1ccc(F)c(C(=O)N2CC3CCC2CN3Cc2c(-c3ccc(Cl)cc3)nc3ncccn23)n1 (single isomer, unassigned) [Example 24] | 6.39
O=C(OC1CCCC1)N1C2CCC1CN(Cc1c(-c3ccc(Cl)cc3)nc3ncccn13)C2 | 6.64
CC(C)(C)OC(=O)N1CC2CCC1CN2Cc1c(-c2ccc(Br)cc2)nc2ncccn12 (stereo not shown) | 5.60
Cc1ccccc1CNC(=O)N1C2CCC1CN(Cc1c(-c3ccc(Cl)cc3)nc3ncccn13)C2 | 4.52
COc1cccc(C(=O)N2C3CCC2CN(Cc2c(-c4ccc(C5CC5)cc4)nc4ncccn24)C3)n1 | 5.96
CC(c1c(-c2ccc(Cl)cc2)nc2ncccn12)N1CC2CCC(C1)N2C(=O)OC(C)(C)C (racemic) | 5.66
COc1nc(C(F)(F)F)c(C(=O)N2C3CCC2CN(Cc2c(-c4ccc(Cl)cc4)nc4ncccn24)C3)s1 | 5.19
CC(C)CNC(=O)N1C2CCC1CN(Cc1c(-c3ccc(Cl)cc3)nc3ncccn13)C2 | 4.72
COc1cccc(C(=O)N2CC3CCC2CN3Cc2c(-c3ccc(Cl)cc3)nc3ncccn23)c1 (stereo not shown) [Example 43] | 6.00
COc1ccc(Cl)c(C(=O)N2CC3CCC2CN3Cc2c(-c3ccc(C(C)C)cc3)nc3ncccn23)n1 (stereo not shown) [Example 69] | 5.55
O=C(N1CCCC1)N1C2CCC1CN(Cc1c(-c3ccc(Cl)cc3)nc3ncccn13)C2 | 5.96
CC(C)(C)OC(=O)N1CC2CCC1CN2Cc1c(-c2ccc(Cl)cc2)nc2ncccn12 (single isomer, unassigned) [Example 5] | 4.77
CC(C)c1ocnc1C(=O)N1C2CCC1CN(Cc1c(-c3ccc(Cl)cc3)nc3ncccn13)C2 | 6.59
COc1ccc(C)c(C(=O)N2CC3CCC2CN3Cc2c(-c3ccc(C(C)C)cc3)nc3ncccn23)n1 (stereo not shown) [Example 77] | 6.14
CC(C)(C)OC(=O)N1C2CCC1CN(Cc1c(-c3ccc(Br)cc3)nc3ncccn13)C2 | 6.66
